system: T1, hCTLA4-His-BAP (human)
T1 sequence (chain, biotin on the BAP-tag): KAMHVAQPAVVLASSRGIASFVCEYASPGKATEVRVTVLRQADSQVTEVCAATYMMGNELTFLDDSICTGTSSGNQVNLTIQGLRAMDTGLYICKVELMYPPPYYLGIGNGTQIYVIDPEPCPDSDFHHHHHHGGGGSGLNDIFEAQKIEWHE
test_details: IgG ELISA, absorbance with / without AMP
parameter_measured: S/N

ABAM005 (antibody, human IgG1, V domains shown) VH: EVQLVESGGDLVKPGGGLRLSCAASGFTFSGYTMNWVRQAPGKGLEWVSSISSRSNYISYADSVKGRFTISRDNAKNSLYLQMNSLRAEDTAVYYCARYGALNHMLWVFDYWGQGTLVTVSS VL: QSALTQPPSASGSPGQTVTISCTGTSTDVGAYNYVSWYQQHPGKAPKLMIYSTSKRPSGVPDRFSGSKSGNTASLTVSGLQAEDEADYFCSLYRYAQGVVFGGGTKLTVL	4.46
ABAM002 (antibody, human IgG1, V domains shown) VH: EVQLVESGGDLVKPGGGLRLSCAASGFTFSSYTMNWVRQAPGKGLEWVSSISSRSTYAHYADSVKGRFTISRDNAKNSLYLQMNSLRAEDTAVYYCARFGGRGHLLWVFDYWGQGTLVTVSS VL: QSALTQPPSASGSPGQTVTISCTGTSTDVGTYNYVSWYQQHPGKAPKLMIYQGSKRPSGVPDRFSGSKSGNTASLTVSGLQAEDEADYFCSTVSGDFHVAFGGGTKLTVL	> 36

Q) Tell us which S/N value is on record for ABAM003 (antibody, human IgG1, V domains shown) VH: EVQLVESGGDLVKPGGGLRLSCAASGFTFSGYTMHWVRQAPGKGLEWVSSISSRSRYASYADSVKGRFTISRDNAKNSLYLQMNSLRAEDTAVYYCARFGIKNHLNWVFDYWGQGTLVTVSS VL: QSALTQPPSASGSPGQTVTISCTGTSSDVGDYNYVSWYQQHPGKAPKLMIYGVSKRPSGVPDRFSGSKSGNTASLTVSGLQAEDEADYFCSTVSTSHSPVFGGGTKLTVL
A) > 1.57
